Recorded values, source patent US9212144B2.

# studyTarget: rat nNOS (Rattus norvegicus (Rat))
# methodSummary: Purified NOS enzyme assay (hemoglobin capture), rat nNOS
# Assay type: biochemical
# condition: rat nNOS; Ki calculated from IC50, average of at least two replicates; read-out: Ki nNOS
pKi: −log10 of the molar value. Counter-ions that a name gives are not always drawn.

{"compound": "Cl.Cl.Nc1ccc2ccc(CNCCCc3cccc(F)c3)cc2n1 [Compound 9, Dihydrochloride]", "comparativeSign": "=", "pKi": 7.22}
{"compound": "Nc1ccc2cc(CCNCc3cccc(F)c3)ccc2n1 [Compound 11, Dihydrochloride]", "comparativeSign": "<", "pKi": 5.24}
{"compound": "Cl.Cl.Nc1ccc2ccc(CCNCCc3ccc(F)cc3)cc2n1 [Compound 14, Dihydrochloride]", "comparativeSign": "=", "pKi": 6.74}
